Tested on: Fibrinogen (Alexa647-labelled)
ASSAY NAME: Alexa647-fibrinogen binding to printed small molecules – biochemical, small-molecule microarray, 635/667 nm fluorescence, artefact control for SMM control-protein annotation, profiling panel (AID 1131);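 also: z-score merges 667 nm fluorescence with per-spot signal-to-noise over triplicate slides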
APPLIED CONDITIONS: fibrinogen-A647 binding fluorescence, higher = more signal
Tick Met if composite z-score is 0.9 or greater. Tick Not met if composite z-score is less than 0.9.

Is composite z-score at least 0.9? Consider "CO[C@H]1O[C@H](CO)[C@@H](OC(=O)Nc2ccc(C(F)(F)F)cc2)[C@H](OC(=O)Nc2ccccc2)[C@@H]1OC(=O)Nc1ccccc1"
Met

Is composite z-score at least 0.9? Consider "[N-]=[N+]=Nc1ccccc1[C@H]1OC(c2ccc(OCCCO)cc2)=N[C@@]1(CCS(=O)(=O)c1ccccc1)C(=O)N1CCOCC1"
Met

Is composite z-score at least 0.9? Consider "O=C(N1CCCCC1)[C@]1(CCS(=O)(=O)c2ccccc2)N=C(c2ccc(OCCCO)cc2)O[C@@H]1c1ccccc1"
Met

Is composite z-score at least 0.9? Consider "COC(=O)[C@@]1(Cc2ccc(F)cc2)[C@H]2c3cc(C(=O)N4CCCC4)n(Cc4ccc(Cl)c(C(F)(F)F)c4)c3C[C@H]2CN1C(=O)c1ccccc1"
Met

Is composite z-score at least 0.9? Consider "CCOC(=O)C[C@H]1[C@H](OC(=O)c2cc3ccccc3oc2=O)[C@@H](NC(=O)c2ccc3ccccc3c2)c2cc(OCCCO)ccc2N1C(=O)c1ccccc1"
Not met

Is composite z-score at least 0.9? Consider "Cc1ccc([C@H]2C(C(=O)O)=C[C@@H](C(C)C)N2S(=O)(=O)c2ccc(C)cc2)cc1"
Met

Is composite z-score at least 0.9? Consider "C[C@]1(C(=O)NCC(F)(F)F)c2ccccc2C(=O)N(Cc2cc(F)cc(C(F)(F)F)c2)[C@H]1c1ccc(CO)cc1"
Not met

Is composite z-score at least 0.9? Consider "C=C(COC)/C(=C/C[C@H](OC(C)=O)c1ccccc1OCCO)c1cnc2ccccc2c1"
Not met

Is composite z-score at least 0.9? Consider O=C1C2C=CC(C(O)c3ccc(-c4ccccc4)s3)N(Nc3ccccc3F)C2C(=O)N1c1ccccc1 (stereo not drawn)
Met

Is composite z-score at least 0.9? Consider "C=C(C(=O)CC[C@H](OC(=O)c1cccnc1)c1ccccc1OCCO)C(C)C"
Not met

Is composite z-score at least 0.9? Consider CN1C(=O)C2C=CC(C(O)C(C)(C)C)N(Nc3ccccc3)C2C1=O (stereo not drawn)
Not met

Is composite z-score at least 0.9? Consider "[N-]=[N+]=Nc1ccccc1C[C@]1(C(=O)N2CCCCC2)N=C(c2ccc(OCCCO)cc2)O[C@H]1c1ccccc1N=[N+]=[N-]"
Met

----------
SYSTEM NAME: NADPH oxidase 5 (Homo sapiens)
ASSAY NAME: compounds shifting NOX5 Amplex Red fluorescence – cell-based, HEK293-NOX5, NOX inhibitor project, primary screen (AID 1161)
APPLIED CONDITIONS: HEK293-NOX5, ionomycin, 45 min, higher = more signal
Tick MET if z-score is -0.4 or greater. Tick NOT MET if z-score is less than -0.4.

Is z-score at least -0.4? Consider "COCCOC(=O)N1C(=O)[C@@]2(c3ccccc31)[C@H](c1ccc(O)cc1)N1[C@H](c3ccccc3)[C@H](c3ccccc3)OC(=O)[C@H]1[C@@H]2C(N)=O"
MET

Is z-score at least -0.4? Consider "CCCCC(=O)N(Cc1ccccc1F)[C@@H]1CC(C(=O)NCCO)=C[C@H](Oc2c(I)cc(CO)cc2OC)[C@H]1O"
NOT MET

Is z-score at least -0.4? Consider "CCCCCCC#C[Si](O[C@H](c1ccccc1)c1cn([C@H](C)c2ccccc2)nn1)(C(C)C)C(C)C"
MET

Is z-score at least -0.4? Consider CCCCCN1CC=CC23O[C@@H]4C=CCCOC(=O)C4[C@H]2C(=O)N(CCCO)[C@@H]3C1=O (some centres not stated)
NOT MET

Is z-score at least -0.4? Consider "[N-]=[N+]=NCc1ccccc1C[C@]1(C(=O)NCCN2CCOCC2)N=C(c2ccc(OCCCO)cc2)O[C@H]1c1ccccc1CN=[N+]=[N-]"
NOT MET

Is z-score at least -0.4? Consider C=CCC(OC(C)=O)[C@@H]1[C@@H](N(Cc2cc3ccccc3o2)C(=O)c2ccc(C)cc2)c2cc(OCCCO)ccc2N1C(=O)c1ccc(-c2ccccc2)cc1 (some centres not stated)
MET

Is z-score at least -0.4? Consider "CCCCC(=C=CC[C@H](O)c1ccccc1OCCO)C[C@H](O)c1cc(Cl)cc(Cl)c1O"
NOT MET

Is z-score at least -0.4? Consider "COCCOC(=O)N1C(=O)[C@@]2(c3cc(C#Cc4ccc(OC)cc4)ccc31)[C@H](c1ccc(OCCO)cc1)N1[C@H](c3ccccc3)[C@H](c3ccccc3)OC(=O)[C@H]1[C@@H]2C(=O)N1CCc2cc(OC)c(OC)cc2C1"
MET

Is z-score at least -0.4? Consider CCN(CC)c1ccc(N2CC=CC34O[C@@H]5C=CCOC(=O)[C@@H]5[C@H]3C(=O)N(CCCCCO)[C@@H]4C2=O)cc1 (some centres not stated)
MET

Is z-score at least -0.4? Consider "COc1ccc([Si](C)(C)[C@@H]2[C@@H](CCO)O[C@]3(C(=O)N(Cc4cccc(N5CCCCC5=O)c4)c4ccccc43)[C@H]2C)cc1"
MET

Is z-score at least -0.4? Consider CC1CC/C=C\[C@H]2OC34C=CCN(Cn5nnc6ccccc65)C(=O)[C@H]3N(CCCO)C(=O)[C@@H]4C2C(=O)O1 (some centres not stated)
MET
